Molecular target: full length USP7 (Homo sapiens (Human), UniProt Q93009)
Sequence (Q93009 whole entry): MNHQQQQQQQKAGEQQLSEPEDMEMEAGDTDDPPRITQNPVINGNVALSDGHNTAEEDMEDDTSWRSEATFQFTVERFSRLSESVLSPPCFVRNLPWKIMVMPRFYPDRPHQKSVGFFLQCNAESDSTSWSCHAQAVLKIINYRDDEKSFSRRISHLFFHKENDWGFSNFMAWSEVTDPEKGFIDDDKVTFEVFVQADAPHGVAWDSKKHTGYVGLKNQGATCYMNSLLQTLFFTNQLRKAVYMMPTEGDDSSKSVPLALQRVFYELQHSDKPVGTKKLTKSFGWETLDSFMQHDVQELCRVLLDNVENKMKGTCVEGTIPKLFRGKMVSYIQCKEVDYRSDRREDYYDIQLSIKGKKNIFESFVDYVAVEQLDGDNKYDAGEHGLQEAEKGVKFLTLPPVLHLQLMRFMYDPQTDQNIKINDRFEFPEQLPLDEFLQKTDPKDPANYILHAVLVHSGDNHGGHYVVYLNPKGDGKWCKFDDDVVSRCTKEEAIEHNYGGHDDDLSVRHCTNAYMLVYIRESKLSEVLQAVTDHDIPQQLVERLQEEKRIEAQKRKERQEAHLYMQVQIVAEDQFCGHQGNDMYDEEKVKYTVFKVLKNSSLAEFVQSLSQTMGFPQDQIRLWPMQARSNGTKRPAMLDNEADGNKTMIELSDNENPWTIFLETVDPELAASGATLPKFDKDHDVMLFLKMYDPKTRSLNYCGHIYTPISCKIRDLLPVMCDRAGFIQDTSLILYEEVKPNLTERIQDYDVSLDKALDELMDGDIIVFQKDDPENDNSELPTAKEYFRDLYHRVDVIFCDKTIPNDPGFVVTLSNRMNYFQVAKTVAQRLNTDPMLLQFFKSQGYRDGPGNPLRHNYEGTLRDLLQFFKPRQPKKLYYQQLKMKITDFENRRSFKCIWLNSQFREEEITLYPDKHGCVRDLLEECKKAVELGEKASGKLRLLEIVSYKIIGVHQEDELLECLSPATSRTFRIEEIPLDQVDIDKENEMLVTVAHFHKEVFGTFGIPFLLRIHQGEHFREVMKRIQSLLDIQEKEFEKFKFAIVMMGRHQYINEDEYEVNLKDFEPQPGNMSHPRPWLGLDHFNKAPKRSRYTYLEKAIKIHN
Assay: Ub-AMC enzymatic assay with full-length USP7
Format: biochemical
Settings: Table 1; 6 hours pre-incubation, Ub-AMC; read-out: IC50 (nM), USP7 activity in USP7 assay
readout.label: IC50

Exercise: Query for full length USP7 (Homo sapiens (Human), UniProt Q93009): what IC50 does the record show for C=CS(=O)(=O)N1CCCc2cc(C(=O)NCCCC(Cc3ccccc3)C(=O)N3CCC(O)(Cn4cnc5cc(NC(=O)CCN6CCN(C)CC6)ccc5c4=O)CC3)ccc21 (stereo not shown) ?
Key: 20 to 100 nM

Exercise: Would you kindly repeat that for CN1CCN(CCC(=O)Nc2ccc3c(=O)n(CC4(O)CCN(C(=O)C(CCCNC(=O)C5(C#N)CC5)Cc5ccccc5)CC4)cnc3c2)CC1 (stereo not shown) ?
Key: 100 to 1000 nM

Exercise: Would you kindly repeat that for CC(C)NC(=O)/C=C/c1ccc(C(=O)NCCC[C@@H](Cc2ccccc2)C(=O)N2CCC(O)(Cn3cnc4cc(NC(=O)CCN5CCOCC5)ccc4c3=O)CC2)cn1 ?
Key: > 1000 nM

Exercise: Would you kindly repeat that for CN(C)C(=O)/C=C/c1ccc(C(=O)NCCC[C@@H](Cc2ccccc2)C(=O)N2CCC(O)(Cn3cnc4cc(NC(=O)CCN5CCOCC5)ccc4c3=O)CC2)cn1 ?
Key: > 1000 nM

Exercise: Would you kindly repeat that for CN1CCN(CCC(=O)Nc2ccc3c(=O)n(CC4(O)CCN(C(=O)CCNC(=O)c5ccc6c(Cl)c7c(nc6c5)CCCC7)CC4)cnc3c2)CC1 ?
Key: 100 to 1000 nM

Exercise: Would you kindly repeat that for CN1CCN(CCC(=O)Nc2ccc3c(=O)n(CC4(O)CCN(C(=O)C(CCNC(=O)c5ccc6c(Cl)c7c(nc6c5)CCCC7)Cc5ccccc5)CC4)cnc3c2)CC1 (stereo not shown) ?
Key: < 20 nM

Exercise: Would you kindly repeat that for CN1CCN(CCC(=O)Nc2ccc3c(=O)n(CC4(O)CCN(C(=O)CNC(=O)c5ccc6c(Cl)c7c(nc6c5)CCCC7)CC4)cnc3c2)CC1 ?
Key: > 1000 nM

Exercise: Would you kindly repeat that for O=C(CCn1ccnc1)Nc1ccc2c(=O)n(CC3(O)CCN(C(=O)CCCCNC(=O)c4ccc5c(Cl)c6c(nc5c4)CCCC6)CC3)cnc2c1 ?
Key: 20 to 100 nM

Exercise: Would you kindly repeat that for CN1CCN(CCC(=O)Nc2ccc3c(=O)n(CC4(O)CCN(C(=O)C(CCCNC(=O)c5cnccc5Cl)Cc5ccccc5)CC4)cnc3c2)CC1 (stereo not shown) ?
Key: > 1000 nM

Exercise: Would you kindly repeat that for O=C(CCN1CCOCC1)Nc1ccc2c(=O)n(CC3(O)CCN(C(=O)[C@@H](CCCNC(=O)c4ccc(/C=C/C(=O)N5CCCCC5)nc4)Cc4ccccc4)CC3)cnc2c1 ?
Key: > 1000 nM

Exercise: Would you kindly repeat that for CN1CCN(CCC(=O)Nc2ccc3c(=O)n(CC4(O)CCN(C(=O)[C@H](Cc5ccccc5)NC(=O)CN(C)C(=O)c5ccc6c(Cl)c7c(nc6c5)CCCC7)CC4)cnc3c2)CC1 ?
Key: < 20 nM

Exercise: Would you kindly repeat that for CN1CCN(CCC(=O)Nc2ccc3c(=O)n(CC4(O)CCN(C(=O)[C@H](Cc5ccccc5)NC(=O)CNC(=O)c5ccc6c(Cl)c7c(nc6c5)CCCC7)CC4)cnc3c2)CC1 ?
Key: < 20 nM

Exercise: Would you kindly repeat that for O=C(CCN1CCOCC1)Nc1ccc2c(=O)n(CC3(O)CCN(C(=O)CCCCNC(=O)c4ccc5c(Cl)c6c(nc5c4)CCCC6)CC3)cnc2c1 ?
Key: 100 to 1000 nM

All figures here come from patent US12503453B2.
